# protocol.summary: AUC in cynomolgus monkey at 5.2 mg/kg, po
# Assay type: ADME, organism-based, Macaca fascicularis
# Parameters: dose 5.2 mg/kg, route oral
# details: plasma

| given.smiles | AUC (ng·h/mL) |
| --- | --- |
| COc1ccc2ncc(F)c([C@@H](O)CN3CCC(NCc4cc5c(cn4)OCCO5)CC3)c2n1 | 720 |

----------
# Tested on: Haemophilus influenzae
# protocol.summary: Antibacterial activity against Haemophilus influenzae H128 after 18 to 24 hrs by broth microdilution method
# Format: functional
Overview of recorded log10 of MIC for various compounds
assay.endpoint: log10 of MIC (log10 of the value in µg/mL)

| given.smiles | assay.endpoint | numeric.result |
| --- | --- | --- |
| COc1ccc2ncc(F)c([C@@H](O)CN3CCC(NCc4cc5c(cn4)OCCO5)CC3)c2n1 | log10 of MIC | -0.30 |
| COc1ccc2ncc(F)c(CCN3CCC(NCc4cc5c(cn4)OCCO5)CC3)c2c1 | log10 of MIC | -0.60 |
| COc1ccc2ncc(F)c([C@H](O)CN3CCC(NCc4cc5c(cn4)OCCO5)CC3)c2n1 | log10 of MIC | 0.00 |
| COc1ccc2nccc([C@@H](O)CN3CCC(NCc4ccc5c(c4)OCCO5)CC3)c2c1 | log10 of MIC | -0.30 |
| COc1ccc2ncc(F)c(CCN3CC[C@H](NCc4cc5c(cn4)OCCO5)[C@H](O)C3)c2n1 | log10 of MIC | -0.30 |
| COc1ccc2ncc(F)c(CCN3CC[C@@H](NCc4cc5c(cn4)OCCO5)[C@H](O)C3)c2n1 | log10 of MIC | -0.30 |
| COc1ccc2ncc(Cl)c(CCN3CCC(NCc4cc5c(cn4)OCCO5)CC3)c2n1 | log10 of MIC | -0.60 |
| COc1ccc2nccc([C@@H](O)CN3CCC(NCc4cc5c(cn4)OCCO5)CC3)c2n1 | log10 of MIC | 0.30 |
| COc1ccc2ncc(F)c(CCN3CC[C@H](NCc4cc5c(cn4)OCCO5)[C@@H](O)C3)c2n1 | log10 of MIC | -0.30 |
| COc1ccc2ncc(F)c(CCN3CC[C@@H](NCc4cc5c(cn4)OCCO5)[C@@H](O)C3)c2n1 | log10 of MIC | -0.30 |
| COc1ccc2ncc(C#N)c(CCN3CCC(NCc4cc5c(cn4)OCS5)CC3)c2c1 | log10 of MIC | -0.60 |
| COc1ccc2ncc(F)c(CCN3CCC(NCc4cc5c(cn4)OCCO5)CC3)c2n1 | log10 of MIC | -0.90 |
| COc1ccc2ncc(C#N)c(CCN3CCC(NCc4cc5c(cn4)OCCO5)CC3)c2n1 | log10 of MIC | -0.30 |

----------
# protocol.summary: Oral bioavailability in Beagle dog at 4 mg/kg
# Assay type: ADME, organism-based, Canis lupus familiaris
# details: in vivo

| given.smiles | bioavailability |
| --- | --- |
| COc1ccc2ncc(F)c([C@@H](O)CN3CCC(NCc4cc5c(cn4)OCCO5)CC3)c2n1 | 76% |

----------
# System: Staphylococcus aureus
# protocol.summary: Antibacterial activity against Staphylococcus aureus WCUH 29 after 18 to 24 hrs by broth microdilution method
# Assay type: functional

| given.smiles | MIC / µg/mL |
| --- | --- |
| COc1ccc2ncc(F)c([C@@H](O)CN3CCC(NCc4cc5c(cn4)OCCO5)CC3)c2n1 | 0.03 |
| COc1ccc2nccc([C@@H](O)CN3CCC(NCc4ccc5c(c4)OCCO5)CC3)c2c1 | 0.125 |
| COc1ccc2ncc(Cl)c(CCN3CCC(NCc4cc5c(cn4)OCCO5)CC3)c2n1 | 0.01 |
| COc1ccc2ncc(C#N)c(CCN3CCC(NCc4cc5c(cn4)OCS5)CC3)c2c1 | 0.01 |
| COc1ccc2ncc(F)c(CCN3CC[C@@H](NCc4cc5c(cn4)OCCO5)[C@@H](O)C3)c2n1 | 0.01 |
| COc1ccc2ncc(F)c([C@H](O)CN3CCC(NCc4cc5c(cn4)OCCO5)CC3)c2n1 | 0.06 |
| COc1ccc2ncc(F)c(CCN3CC[C@@H](NCc4cc5c(cn4)OCCO5)[C@H](O)C3)c2n1 | 0.01 |
| COc1ccc2ncc(C#N)c(CCN3CCC(NCc4cc5c(cn4)OCCO5)CC3)c2n1 | 0.01 |

----------
# protocol.summary: Volume of distribution at steady state in cynomolgus monkey at 3.1 mg/kg, iv
# Type: ADME, organism-based, Macaca fascicularis
# Parameters: dose 3.1 mg/kg, route intravenous
# details: in vivo, read-out: Vdss

| given.smiles | measurement.units | Vd |
| --- | --- | --- |
| COc1ccc2ncc(F)c([C@@H](O)CN3CCC(NCc4cc5c(cn4)OCCO5)CC3)c2n1 | L/kg | 4.1 |

----------
# protocol.summary: Plasma protein binding in rat
# Format: ADME, cell-free
# details: read-out: PPB (converted)

| given.smiles | fraction unbound |
| --- | --- |
| COc1ccc2ncc(F)c([C@@H](O)CN3CCC(NCc4cc5c(cn4)OCCO5)CC3)c2n1 | 0.589 |

----------
# protocol.summary: Blood clearance in cynomolgus monkey at 3.1 mg/kg, iv
# Format: ADME, organism-based, Macaca fascicularis
# Set-up: dose 3.1 mg/kg, route intravenous
# details: whole blood

| given.smiles | clearance [mL/min/kg] |
| --- | --- |
| COc1ccc2ncc(F)c([C@@H](O)CN3CCC(NCc4cc5c(cn4)OCCO5)CC3)c2n1 | 15.2 |

----------
# protocol.summary: Plasma protein binding in human
# Assay type: ADME, cell-free
# details: read-out: PPB (converted)

| given.smiles | fraction unbound |
| --- | --- |
| COc1ccc2ncc(F)c([C@@H](O)CN3CCC(NCc4cc5c(cn4)OCCO5)CC3)c2n1 | 0.307 |

----------
# protocol.summary: Blood clearance in Beagle dog at 3.5 mg/kg, iv
# Assay type: ADME, organism-based, Canis lupus familiaris
# Parameters: dose 3.5 mg/kg, route intravenous
# details: whole blood

| given.smiles | measurement.units | clearance |
| --- | --- | --- |
| COc1ccc2ncc(F)c([C@@H](O)CN3CCC(NCc4cc5c(cn4)OCCO5)CC3)c2n1 | mL/min/kg | 16.7 |

----------
# protocol.summary: Half life in Beagle dog at 3.5 mg/kg, iv
# Type: ADME, organism-based, Canis lupus familiaris
# Set-up: dose 3.5 mg/kg, route intravenous
# details: in vivo

| given.smiles | measurement.units | half-life |
| --- | --- | --- |
| COc1ccc2ncc(F)c([C@@H](O)CN3CCC(NCc4cc5c(cn4)OCCO5)CC3)c2n1 | h | 12.4 |

----------
# protocol.summary: Inhibition of Haemophilus influenzae DNA gyrase-dependent DNA replication by scintillation proximity assay
IC50 strictly under 0.06 µg/mL means Condition met; at 0.06 µg/mL or over means Condition not met.

| given.smiles | assigned.category |
| --- | --- |
| COc1ccc2ncc(F)c(CCN3CC[C@@H](NCc4cc5c(cn4)OCCO5)[C@H](O)C3)c2n1 | Condition met |
| COc1ccc2nccc([C@@H](O)CN3CCC(NCc4cc5c(cn4)OCCO5)CC3)c2n1 | Condition met |
| COc1ccc2ncc(F)c([C@H](O)CN3CCC(NCc4cc5c(cn4)OCCO5)CC3)c2n1 | Condition not met |
| COc1ccc2ncc(F)c(CCN3CC[C@H](NCc4cc5c(cn4)OCCO5)[C@H](O)C3)c2n1 | Condition not met |

----------
# protocol.summary: Mean residence time in Sprague-Dawley rat at 3.5 mg/kg, iv
# Assay type: ADME, organism-based
# Set-up: dose 3.5 mg/kg, route intravenous
# details: in vivo
assay.endpoint: MRT (h)

| given.smiles | measurement.units | numeric.result |
| --- | --- | --- |
| COc1ccc2ncc(F)c([C@@H](O)CN3CCC(NCc4cc5c(cn4)OCCO5)CC3)c2n1 | h | 2.5 |

----------
# assayed.target: Voltage-gated inwardly rectifying potassium channel KCNH2 (Homo sapiens)
# Sequence (Q12809 whole entry): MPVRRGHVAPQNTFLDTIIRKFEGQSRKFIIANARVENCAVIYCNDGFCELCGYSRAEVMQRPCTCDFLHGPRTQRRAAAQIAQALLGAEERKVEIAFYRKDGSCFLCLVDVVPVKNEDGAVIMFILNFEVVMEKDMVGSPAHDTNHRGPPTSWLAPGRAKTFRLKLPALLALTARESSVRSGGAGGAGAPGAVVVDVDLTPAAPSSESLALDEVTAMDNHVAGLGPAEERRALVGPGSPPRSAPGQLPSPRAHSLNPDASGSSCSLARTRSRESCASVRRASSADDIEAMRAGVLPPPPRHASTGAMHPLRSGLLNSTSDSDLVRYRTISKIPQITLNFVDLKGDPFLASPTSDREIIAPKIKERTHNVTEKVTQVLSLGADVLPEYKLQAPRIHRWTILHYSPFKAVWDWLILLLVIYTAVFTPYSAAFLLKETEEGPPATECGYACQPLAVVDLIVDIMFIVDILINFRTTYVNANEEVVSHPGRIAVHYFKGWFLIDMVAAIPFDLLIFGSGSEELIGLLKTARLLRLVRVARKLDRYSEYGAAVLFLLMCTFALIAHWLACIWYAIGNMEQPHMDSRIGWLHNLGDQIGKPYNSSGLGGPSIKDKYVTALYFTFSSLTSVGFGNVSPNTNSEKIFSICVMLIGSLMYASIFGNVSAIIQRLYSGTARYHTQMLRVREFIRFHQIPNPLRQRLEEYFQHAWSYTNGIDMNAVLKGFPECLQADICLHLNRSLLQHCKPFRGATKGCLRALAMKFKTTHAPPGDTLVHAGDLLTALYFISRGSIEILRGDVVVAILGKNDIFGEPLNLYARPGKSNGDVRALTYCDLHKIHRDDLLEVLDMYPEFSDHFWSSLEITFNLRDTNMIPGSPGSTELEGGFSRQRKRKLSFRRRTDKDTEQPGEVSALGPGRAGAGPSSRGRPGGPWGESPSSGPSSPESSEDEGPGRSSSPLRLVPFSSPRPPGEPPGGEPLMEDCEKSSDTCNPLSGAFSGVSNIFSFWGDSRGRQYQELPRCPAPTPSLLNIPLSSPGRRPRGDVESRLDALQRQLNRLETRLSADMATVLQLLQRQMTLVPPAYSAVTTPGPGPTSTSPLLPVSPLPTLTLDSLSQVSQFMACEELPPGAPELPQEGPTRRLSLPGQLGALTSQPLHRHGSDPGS
# protocol.summary: Displacement of [3H]dofetilide from human ERG by liquid scintillation counting
IC50 strictly under 60 µM means True; at 60 µM or over means False.

| given.smiles | assigned.category |
| --- | --- |
| COc1ccc2ncc(Cl)c(CCN3CCC(NCc4cc5c(cn4)OCCO5)CC3)c2n1 | True |
| COc1ccc2nccc([C@@H](O)CN3CCC(NCc4cc5c(cn4)OCCO5)CC3)c2n1 | True |
| COc1ccc2ncc(F)c([C@H](O)CN3CCC(NCc4cc5c(cn4)OCCO5)CC3)c2n1 | False |
| COc1ccc2ncc(F)c([C@@H](O)CN3CCC(NCc4cc5c(cn4)OCCO5)CC3)c2n1 | False |
| COc1ccc2ncc(C#N)c(CCN3CCC(NCc4cc5c(cn4)OCS5)CC3)c2c1 | True |
| COc1ccc2ncc(F)c(CCN3CCC(NCc4cc5c(cn4)OCCO5)CC3)c2c1 | True |

These measurements were taken from ChEMBL document CHEMBL1926511.
